# TEST DETAILS: Minimal motor impairment (rotorod) toxicity test (TOX), mice
# PARTICULARS: mouse, in vivo, TD50, Example 13, 1:1:18 ethanol:polyethoxlated castor oil:PBS solvent
MEASURED QUANTITY: TD50 at 2 h
Field note: include the unit after the figure.

# input Tell me the measured TD50 at 2 h of C=C(C)[C@@H]1CCC(C)=C[C@H]1c1c(O)cc(CCCCC)cc1O [cannabidiol] , please.
# output 267 mg/kg

---

# TEST DETAILS: Pharmacokinetic food-effect study, single 20 mg/kg dose, healthy subjects (Example 17)
# PARTICULARS: human, in vivo, po, 20 mg/kg, AUC0-inf, cannabidiol, single 20 mg/kg oral dose of cannabidiol solution, fed; mean
MEASURED QUANTITY: AUC(0-inf)

# input Tell me the measured AUC(0-inf) of C=C(C)[C@@H]1CCC(C)=C[C@H]1c1c(O)cc(CCCCC)cc1O , please.
# output 10100 ng·h/mL
